Values compiled from ChEMBL document CHEMBL1156251.

# experimental system: Lipopolysaccharide (LPS)
# method description: Displacement of dansyl-PMB from LPS by isothermal titration calorimetry
Where a SMILES comes first, the peptide text is derived from it. Bridges are numbered along the chain shown (N, C = ends). [ ]: non-standard residue; d: D form. Dab = NCC[C@H](N)C(=O)O
measurement kind: IC50 (nmol/mL)
Lab book: enter the figure in nmol/mL, no units written.

compound: CC(C)C[C@@H]1NC(=O)[C@@H](Cc2ccccc2)NC(=O)[C@H](CCN)NC(=O)[C@@H](NC(=O)[C@H](CCN)NC(=O)[C@@H](NC(=O)[C@H](CCCNC(=N)N)NC(=O)O)[C@@H](C)O)CCNC(=O)[C@H]([C@@H](C)O)NC(=O)[C@H](CCN)NC(=O)[C@H](CCN)NC1=O [DESFA-[ARG1]POLYMYXIN B]
measurement kind: IC50
readout number: 15

Next:
Request: Which IC50 is listed for CC(=O)N[C@@H](CCN)C(=O)N[C@H](C(=O)N[C@@H](CCN)C(=O)N[C@H]1CCNC(=O)[C@H]([C@@H](C)O)NC(=O)[C@H](CCN)NC(=O)[C@H](CCN)NC(=O)[C@H](CC(C)C)NC(=O)[C@@H](Cc2ccccc2)NC(=O)[C@H](CCN)NC1=O)[C@@H](C)O [DEACYL POLYMYXIN B] (Ac-[Dab]T[Dab][Dab][Dab][dF]L[Dab][Dab]T; lactam 4-C) ?
Result: 13

====

# System: Escherichia coli
# method description: Antimicrobial activity against Escherichia coli
# Assay type: functional
Where a SMILES comes first, the peptide text is derived from it. Bridges are numbered along the chain shown (N, C = ends). [ ]: non-standard residue; d: D form. The star is where a group is joined. Heptanoyl = CCCCCCC(=O)*; Dab = NCC[C@H](N)C(=O)O
Property: MIC; scope: individual molecules
Expressed in µM, but write only the number.

molecule: CCCCCCC(=O)N[C@@H](CCN)C(=O)N[C@H](C(=O)N[C@@H](CCN)C(=O)N[C@H]1CCNC(=O)[C@H]([C@@H](C)O)NC(=O)[C@H](CCN)NC(=O)[C@H](CCN)NC(=O)[C@H](CC(C)C)NC(=O)[C@@H](Cc2ccccc2)NC(=O)[C@H](CCN)NC1=O)[C@@H](C)O [POLYMYXIN B4] (Heptanoyl-[Dab]T[Dab][Dab][Dab][dF]L[Dab][Dab]T; lactam 4-C)
experimental system: Escherichia coli
readout number: 0.5

Request: Give Escherichia coli MIC for CC(C)C[C@@H]1NC(=O)[C@@H](CC(C)C)NC(=O)[C@H](CCN)NC(=O)[C@@H](NC(=O)[C@H](CCN)NC(=O)[C@@H](NC(=O)[C@H](CCN)NC(=O)C(c2ccccc2)C2CCCC2)[C@@H](C)O)CCNC(=O)[C@H]([C@@H](C)O)NC(=O)[C@H](CCN)NC(=O)[C@H](CCN)NC1=O (stereo partly specified)
Result: 16

Request: Entry to check: CCCCCCCCCCCCCC(=O)N[C@H](C(=O)N[C@@H](CCN)C(=O)N[C@H]1CCNC(=O)[C@H]([C@@H](C)O)NC(=O)[C@H](CCN)NC(=O)[C@H](CCN)NC(=O)[C@H](CC(C)C)NC(=O)[C@@H](CC(C)C)NC(=O)[C@H](CCN)NC1=O)[C@@H](C)O
Result: 4
